Reference source: ChEMBL document CHEMBL1201862

test system: LOX IMVI; experiment: NCI tumour cell line growth inhibition, 48 h
Active and inactive are the calls of the source. Cut-off read from the data, not from the text of the source: active = GI50 up to about 1.1 µM and inactive = higher.
Catalogue of compounds with associated GI50

// solved cases for GI50 follow
Compound	GI50
CCn1c2c(c3ccccc3c1=O)C(=O)c1ccccc1-2	> 100 µM (inactive)
Cc1c(C(=O)O)n2c(C)nnc2c2ccccc12	> 100 µM (inactive)
CN(C)c1ccc(-c2cc(O)c3ccccc3n2)cc1	> 100 µM (inactive)
Cc1cc(Cl)cc2c1NC(=O)C2=O.O=C(c1ccccc1)C(F)(F)F	15.3 µM (inactive)
C=CCNC1=C2C[C@@H](C)C[C@@H](OC)C(OC(=O)CCCN(C)C)[C@H](C)/C=C(\C)[C@@H](OC(N)=O)[C@H](OC)/C=C\C=C(/C)C(=O)NC(=CC1=O)C2=O (stereo partly specified)	10.1 µM (inactive)
Cn1c2ccc(Cl)cc2c2ccc3c(c21)C(=O)C=CC3=O	> 10 µM (inactive)
COc1ccc(NC(=O)CC/C(CC(=O)c2ccco2)=N/Nc2ccc([N+](=O)[O-])cc2[N+](=O)[O-])cc1	39.7 µM (inactive)
CCC(C#N)N(Cc1ccc(CN(C(=O)c2ccccc2)C(C#N)CC)cc1)C(=O)c1ccccc1 (stereo unspecified)	15.9 µM (inactive)
c1ccc(/N=C2\c3ccccc3C3=NCCCN32)cc1	47.1 µM (inactive)
O=C(CC(=O)c1ccccc1)C(=O)NC12CC3CC(CC(C3)C1)C2	> 34.6 µM (inactive)

The reported GI50 of the compound `CC1=C(C(=O)CC(=O)C(=O)Nc2cccc(C)c2C)Sc2ccccc2N1` was > 100 µM (inactive)

The reported GI50 of the compound `O=c1[nH]c(=O)n(COCCOCc2ccccc2)cc1Nc1ccccc1` was > 100 µM (inactive)
